Listing: pKd of selected molecules
- targetSystem: Polycomb protein EED (Homo sapiens, UniProt O75530)
- Sequence (O75530 whole entry, the tested form may be a part): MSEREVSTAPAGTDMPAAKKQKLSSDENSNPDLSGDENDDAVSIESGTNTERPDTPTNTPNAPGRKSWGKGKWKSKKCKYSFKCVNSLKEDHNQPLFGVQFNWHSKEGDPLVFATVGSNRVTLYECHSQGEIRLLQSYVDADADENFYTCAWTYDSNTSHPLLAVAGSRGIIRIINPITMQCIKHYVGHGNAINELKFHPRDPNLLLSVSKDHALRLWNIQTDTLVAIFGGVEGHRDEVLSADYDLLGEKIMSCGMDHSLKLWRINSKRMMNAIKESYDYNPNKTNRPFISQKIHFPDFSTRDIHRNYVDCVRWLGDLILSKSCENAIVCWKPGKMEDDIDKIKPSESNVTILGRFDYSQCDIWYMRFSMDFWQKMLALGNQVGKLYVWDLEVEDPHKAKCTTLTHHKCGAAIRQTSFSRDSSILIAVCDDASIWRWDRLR
- testName: Binding affinity to EED (unknown origin) assessed as dissociation constant by SPR analysis
Reminder that pKd means the negative base-10 logarithm of the concentration expressed in mol/L.

Below are worked cases with known answers.
Cc1ncccc1-c1cnc(NCc2c(F)cc(Cl)c3c2CCO3)n2cnnc12 ... 8.62
Cc1ncccc1-c1cnc(NCc2c(F)cc(N)c3c2CCO3)n2cnnc12 ... 9.30
Cc1ncccc1-c1cnc(NCc2c(F)cc(C#N)c3c2CCO3)n2cnnc12 ... 7.82
Cc1ncccc1-c1cnc(NCc2c(F)cc(F)c3c2CCO3)n2cnnc12 ... 8.92

Turning now to a further molecule:
## Input Which pKd is listed for "Cc1ncccc1-c1cnc(NCc2c(F)ccc3c2CCO3)n2cnnc12" ?
## Output 9.40

====

The following molecules are shown together with reported IC50 values.
- targetSystem: Polycomb protein EED (Homo sapiens, UniProt O75530)
- testName: Inhibition of EED (unknown origin)

CS(=O)(=O)N1CC=C(c2cnc(NCC3Cc4cc(F)ccc4O3)n3cnnc23)CC1 (configuration not stated) ... < 20 nM

## Input Consider the molecule shown here: Cc1ncccc1-c1cnc(NCC2Cc3cc(F)ccc3O2)c2cncnc12 (configuration not stated) What is its recorded IC50?
## Output < 100 nM

## Input Value lookup for IC50; key = CN1CC=C(c2cnc(NCC3Cc4cc(F)ccc4O3)n3cnnc23)CC1 (configuration not stated)
## Output < 20 nM

## Input Fill in: IC50 of CN1CC=C(c2cnc(NCC3Cc4cc(F)ccc4O3)c3nncn23)CC1 (configuration not stated) is ___
## Output < 100 nM

## Input State the recorded IC50 for this entry: "[2H]C([2H])(Nc1ncc(-c2cccnc2C)c(=O)n1C)c1c(F)ccc2c1CCO2"
## Output 4.5 nM

## Input Quick check: IC50 of Cc1ncccc1-c1cnc(NCC2Cc3cc(F)ccc3O2)n2cc(C#N)nc12 (configuration not stated) ?
## Output < 100 nM

## Input Entry under review: CN1CC=C(c2cnc(NCC3Cc4cc(F)ccc4O3)c3cncnc23)CC1 (configuration not stated) . Reported IC50?
## Output < 100 nM

## Input Data request, read-out IC50, for CCS(=O)(=O)N1CC=C(c2cnc(NCC3Cc4cc(F)ccc4O3)n3cnnc23)CC1 (configuration not stated)
## Output < 20 nM

## Input State the recorded IC50 for this entry: Cc1ncccc1-c1cnc(NCC2Cc3cc(F)ccc3O2)c2nncn12 (configuration not stated)
## Output < 100 nM

## Input So what does the record say about IC50 for Cc1cc(-c2cnc(NCC3Cc4cc(F)ccc4O3)n3cc(C#N)nc23)n(C)n1 (configuration not stated) ?
## Output < 100 nM

## Input Name the recorded IC50 for "CS(=O)(=O)c1ccc(-c2cnc(NCc3ccco3)n3cnnc23)cc1" .
## Output 20 nM

## Input Which measured IC50 value corresponds to CC(=O)N1CC=C(c2cnc(NCC3Cc4cc(F)ccc4O3)n3cnnc23)CC1 (configuration not stated) ?
## Output < 20 nM

====

- testName: Antiproliferative activity against human ARCaPE cells expressing sh Ctrl
- runParameters: ARCaP
measuredParameter: IC50 (µM)
Reply numerically in µM, unit not repeated.

## Input Need IC50, item "CCOP(=O)(OCC)C(NC(=O)[C@H](Cc1ccc(-c2ccccc2)cc1)NC(=O)/C=C/c1ccc(-c2ccccc2)cc1)P(=O)(OCC)OCC"
## Output 64.9

====

- testName: Inhibition of PRC2 HMTase activity in human G-401 cells using nucleosome core particles as substrate in presence of activation peptide H3K27me3 (21 to 44 residues)
measuredParameter: pIC50
Keep it numeric: pIC50 is minus log10 of the concentration in mol/L.

## Input pIC50 for "CS(=O)(=O)c1ccc(-c2cnc(NCc3ccco3)n3cnnc23)cc1" ?
## Output 6.66

====

- testName: Solubility of the compound at pH 7.4
- Type: physicochemical
- runParameters: buffer
measuredParameter: solubility
Please append the unit to your numeric answer.

Before answering, review these 3 worked examples.
Cc1ncccc1-c1cnc(NCc2c(F)cc(Cl)c3c2CCO3)n2cnnc12 ... 0.2 µM
Cc1ncccc1-c1cnc(NCc2c(F)cc(O)c3c2CCO3)n2cnnc12 ... 5 µM
Cc1ncccc1-c1cnc(NCc2c(F)cc(C#N)c3c2CCO3)n2cnnc12 ... 3 µM

// next item, solubility requested
## Input Quick one: solubility for "Cc1ncccc1-c1cnc(NCc2c(F)cc(F)c3c2CCO3)n2cnnc12" ?
## Output 4 µM

====

- testName: Inhibition of EZH2-EED (unknown origin) protein interaction by FP binding assay
- Parameters: species or system Homo sapiens
Structures can show the parent of a compound that is named as a salt.
measuredParameter: IC50
Hey, just the number and the unit after it is fine.

Take a look at these entries with their results.
COC(=O)C1=C(C)NC(C)=C(C(=O)OC)C1c1ccccc1[N+](=O)[O-] ... 343 µM
CN1CCc2cccc3c2[C@H]1Cc1ccc(O)c(O)c1-3 [APOMORPHINE HYDROCHLORIDE] ... 15.5 µM
CCCCC1C(=O)N(c2ccccc2)N(c2ccc(O)cc2)C1=O (centres undefined) [OXYPHENBUTAZONE ANHYDROUS] ... 229 µM

Next, consider the following compound.
## Input # IC50 lookup, item C[C@@H](CO)NC(=O)[C@@H]1C=C2c3cccc4[nH]cc(c34)C[C@H]2N(C)C1 [ERGONOVINE MALEATE]
## Output 366 µM

====

- testName: Antiproliferative activity against human ARCaP cells expressing sh RNA EPLIN
measuredParameter: IC50 (nM)
Express the result in nM but write the number alone.

## Input Entry "CCOP(=O)(OCC)C(NC(=O)[C@H](Cc1ccc(-c2ccccc2)cc1)NC(=O)/C=C/c1ccc(-c2ccccc2)cc1)P(=O)(OCC)OCC" : reported IC50 = ?
## Output 260

====

- testName: Binding affinity to EZH2-EED (unknown origin) protein interaction assessed as inhibition constant by FP binding assay
- Set-up: species or system Homo sapiens
Counter-ions that a name gives are not always drawn.
Recorded measurements of Ki, one per entry
Report the figure along with its unit, number first.

CCCCC1C(=O)N(c2ccccc2)N(c2ccc(O)cc2)C1=O (centres undefined) [OXYPHENBUTAZONE ANHYDROUS] ... 44.5 µM
C[C@@H](CO)NC(=O)[C@@H]1C=C2c3cccc4[nH]cc(c34)C[C@H]2N(C)C1 [ERGONOVINE MALEATE] ... 71.1 µM
CN1CCc2cccc3c2[C@H]1Cc1ccc(O)c(O)c1-3 [APOMORPHINE HYDROCHLORIDE] ... 2.9 µM

Note: attention shifts to another entry.
## Input What Ki value was documented for this compound, COC(=O)C1=C(C)NC(C)=C(C(=O)OC)C1c1ccccc1[N+](=O)[O-] [NIFEDIPINE] ?
## Output 66.6 µM

====

- System: Pfeiffer
- testName: Antiproliferative activity against human Pfeiffer cells assessed as viable cells with replenishment of medium with compound for every three days upto 6 days by trypan blue staining based automated bio-rad TC20 cell counter method
- Assay type: functional
measuredParameter: EC50 (nM)
Provide only the numeric value, understood in nM.

## Input I have this molecule here, "Cc1ncsc1-c1ccc(CNC(=O)[C@@H]2C[C@@H](O)CN2C(=O)[C@@H](NC(=O)CCCNC(=O)c2ccc(-c3cnc(NCc4ccco4)n4cnnc34)cc2)C(C)(C)C)cc1" , and I need its recorded EC50.
## Output 410

====

- targetSystem: Polycomb protein EED (Homo sapiens, UniProt O75530)
- testName: Inhibition of His-tagged EED (unknown origin) incubated for 30 mins in presence of biotinylated H3K27me3 peptide (19 to 33 aa) by alpha screening competitive binding assay method
measuredParameter: IC50 (nM)
The figure you give is taken to be in nM; do not add the unit.

## Input Which IC50 value belongs to "[2H]C([2H])(Nc1ncc(-c2cccnc2C)c(=O)n1C)c1c(F)ccc2c1CCO2" ?
## Output 4.5

====

- targetSystem: Polycomb protein EED (Homo sapiens)
- testName: Binding affinity to EED (unknown origin) assessed as dissociation constant
pKd values for the compounds below.
Formally, pKd is defined as -log10 of the concentration c, with c in mol/L.

The examples below pair each entry with its known result.
Cc1nc(NCc2c(F)ccc3c2CCO3)sc1-c1ccnn1C ... 6.05
Cc1ncccc1-c1cc2c(n3cnnc13)NCc1c(F)ccc3c1[C@H](CO3)CO2 [POCIREDIR] ... 6.79
Cc1ncccc1-c1sc(NCc2c(F)ccc3c2CCO3)nc1C ... 5.43

Turning to the following compound.
## Input Kindly state the measured pKd obtained for "Cc1nc(NCc2cccc3c2OCO3)sc1-c1ccn(C)n1" with Polycomb protein EED (Homo sapiens).
## Output 5.28

====

- targetSystem: Polycomb protein EED (Homo sapiens, UniProt O75530)
- testName: Binding affinity to human N-terminal His-6 tagged EED expressed in Escherichia coli strain […] by SPR analysis
measuredParameter: Kd (nM)
Reply with just the number (in nM).

Cc1nc(CCC(=O)NCCCCC(=O)N[C@H](C(=O)N2C[C@H](O)C[C@H]2C(=O)NCc2ccc(-c3scnc3C)cc2)C(C)(C)C)ccc1-c1cnc(NCc2c(F)ccc3c2CCO3)n2cnnc12 ... 0.537

We now examine a further molecule.
## Input Please give the measured Kd for this molecule: "Cc1ncsc1-c1ccc(CNC(=O)[C@@H]2C[C@@H](O)CN2C(=O)[C@@H](NC(=O)COc2ccc(OCCNC(=O)CCc3ccc(-c4cnc(NCc5c(F)ccc6c5CCO6)n5cnnc45)c(N)n3)cc2)C(C)(C)C)cc1"
## Output 0.631
